All values here come from ChEMBL document CHEMBL1201862.

# Tested on: DU-145
# ASSAY_PROTOCOL: NCI tumour cell line growth inhibition, 48 h
Activity calls are given as the source filed them. Rule as the data show it: active = GI50 up to about 1.1 µM and inactive = higher.
PROPERTY_MEASURED: GI50

{"COMPOUND": "O=C(CNc1ccccc1Cl)Nn1c(-c2ccccc2)nc2ccccc2c1=O", "SYSTEM_TESTED": "DU-145", "GI50": "> 100 µM (inactive)"}

Below are 4 compounds. Give each one its GI50.
1. CC[C@H]1C=CCC[C@@]2(C[C@@H]3CC[C@@H]4[C@H](C(=O)OCCCCCCCCCCCCCCCC(=O)N(CCCNC(C)=O)C[C@H](CCNC(C)=O)OC(C)=O)[C@]5(CCC[C@@H](C)O5)NC(=[N+]34)N2)O1
2. CCN(CC)c1ccc(C2SCC(=O)N2c2ccc(NC(=O)c3ccc(N4C(=O)CSC4c4ccc(N(CC)CC)cc4)cc3)cc2)cc1 (stereo not given)
3. C=C(C)C1CC=C(C)C(=O)C1 (stereo not given) [CARVONE]
4. [N-]=[N+]=C(C(=O)N1CCCC1=O)S(=O)(=O)c1ccccc1

0.0918 µM (active)
> 100 µM (inactive)
> 100 µM (inactive)
> 100 µM (inactive)
